Entry source: ChEMBL document CHEMBL1201862

Each item that follows carries a reported GI50.
Tested on: SF-539
procedureDetails: NCI tumour cell line growth inhibition, 48 h
The source made the active and inactive calls. No stated cut-off is given here; in the data, active = GI50 up to about 1.1 µM and inactive = higher.

- compound: "CC(C)=CCC/C(C)=C/Cc1cc(/C=C/c2cc(O)c(CC=C(C)C)c(O)c2)cc(O)c1O [MAPPAIN]"
  measuredTarget: "SF-539"
  GI50: "3.79 µM (inactive)"
- compound: "O=C(NS(=O)(=O)Nc1ccc(Cl)cc1)OCc1ccc(Cl)cc1Cl"
  measuredTarget: "SF-539"
  GI50: "19.9 µM (inactive)"
- compound: "O=C1c2ccccc2NC2C(O)c3ccccc3N12 (centres undefined)"
  measuredTarget: "SF-539"
  GI50: "> 100 µM (inactive)"
- compound: "O=S1(=O)C[C@H](O)[C@H](O)CS1"
  measuredTarget: "SF-539"
  GI50: "> 100 µM (inactive)"
- compound: "Cn1cnc([N+](=O)[O-])c1Sc1ccccn1"
  measuredTarget: "SF-539"
  GI50: "> 100 µM (inactive)"

Next compound, please.
Lookup: Item CC(CO)CCNc1ncnc2c1ncn2CCC(=O)OC(C)(C)C (centres undefined) has what recorded GI50?
Found: > 100 µM (inactive)

====

Tested on: M14
procedureDetails: NCI tumour cell line growth inhibition, 48 h
Active and inactive are the calls of the source. No stated cut-off is given here; in the data, active = GI50 up to about 1.1 µM and inactive = higher.
Each item that follows carries a reported GI50.

Use these answered entries as a reference point.
- compound: "C[C@]12CCC(=O)C=C1CC[C@@H]1C2CC[C@]2(C)Nc3c(ncn3-c3ccc(F)cc3)CC12 (stereo partly specified)"
  GI50: "23.8 µM (inactive)"
- compound: "CNC(=S)N/N=C1\\CC(c2ccccc2)Oc2ccccc21 (stereo unspecified)"
  GI50: "> 100 µM (inactive)"
- compound: "Cc1nc2c(C)ccc([N+](=O)[O-])c2c(NCCCN(C)C)c1C"
  GI50: "19.5 µM (inactive)"
- compound: "CCC1C(=O)OCc2c1cc1n(c2=O)Cc2cc3ccccc3nc2-1 (stereo unspecified)"
  GI50: "3.38 µM (inactive)"
- compound: "NC(=O)/C(=C\\c1ccncc1)c1cccc2ccccc12"
  GI50: "55.1 µM (inactive)"

Lookup: Item `CCOC(=O)/C(C(=O)Nc1ccc(F)cc1)=C(/N)N1CCCC1` has what recorded GI50?
Found: > 100 µM (inactive)

Lookup: Same lookup for `CCCc1nc(Cl)c(Cl)c(Cl)n1` , please.
Found: 25.4 µM (inactive)

Lookup: Same lookup for `COC(=O)NCCc1n[nH]c2c1C(=O)C=C(N1CCOCC1)C2=O` , please.
Found: > 100 µM (inactive)

Lookup: Same lookup for O=C1O[B-](c2ccccc2)(c2ccccc2)[NH+]2CCCC12 (stereo unspecified) , please.
Found: 40.5 µM (inactive)

Lookup: Same lookup for `O=C1CCCC2=C1CC1=C(CCCC1=O)N2c1ccc(-c2ccccc2)cc1` , please.
Found: > 100 µM (inactive)

Lookup: Same lookup for `COc1cc(CC(=O)c2ccc3c(c2)OCO3)cc(OC)c1OC` , please.
Found: > 100 µM (inactive)

====

System: CCRF-CEM
procedureDetails: NCI tumour cell line growth inhibition, 48 h
Activity calls are given as the source filed them. Cut-off read from the data, not from the text of the source: active = GI50 up to about 1.1 µM and inactive = higher.
measuredQuantity: GI50

Use these answered entries as a reference point.
- compound: "COC(=O)C1=NN2c3ccccc3CN([C@@H](C)c3ccccc3)C(=O)[C@@H]2C1"
  GI50: "25.7 µM (inactive)"
- compound: "CCOC(=O)c1sc2nc(SC)nc(Nc3ccc4c(c3)OCO4)c2c1N"
  GI50: "50.7 µM (inactive)"
- compound: "O=C1OC(/C=C/c2ccccc2)C(=O)C1=O (stereo not given)"
  GI50: "> 100 µM (inactive)"

Lookup: Item `CN1C(=O)c2c(c3c4ccccc4n(C)c3c3c2c2ccccc2n3C)C1=O` has what recorded GI50?
Found: > 100 µM (inactive)

Lookup: Same lookup for `C=CCN(N=O)C(=O)ON1C(=O)CCC1=O` , please.
Found: 85.9 µM (inactive)

====

Test system: DMS-114
procedureDetails: NCI tumour cell line growth inhibition, 48 h
Active and inactive are the calls of the source. Rule as the data show it: active = GI50 up to about 1.1 µM and inactive = higher.
measuredQuantity: GI50

Use these answered entries as a reference point.
- molecule: "COc1ccc(C2C3=C(COC3=O)Oc3cc4c(cc32)OCO4)cc1 (stereo unspecified)"
  GI50: "4.3 µM (inactive)"
- molecule: "COc1ccc(N2C(=O)C3c4[nH]c5ccccc5c4C4CC(C)CC(C)C4C3C2=O)cc1 (stereo unspecified)"
  GI50: "> 100 µM (inactive)"
- molecule: "Cc1ccc2nc3c(C)c(Cl)c(=O)cc-3sc2c1"
  GI50: "2.97 µM (inactive)"
- molecule: "O=C1C=CC(=O)c2c(O)ccc(O)c21"
  GI50: "1.8 µM (inactive)"
- molecule: "CC1=C(C(=O)CC(=O)C(=O)Nc2cccc(C)c2C)Sc2ccccc2N1"
  GI50: "> 100 µM (inactive)"
- molecule: "CC(=O)/C(=C\\c1ccccc1)C(=O)Nc1ccccc1"
  GI50: "> 100 µM (inactive)"

Lookup: Item `O=C(CCc1nnc2s/c(=C\c3ccccc3)c(=O)n12)Nc1cc(Cl)ccc1Cl` has what recorded GI50?
Found: > 100 µM (inactive)

Lookup: Same lookup for `COc1ccc2c(c1)CCCc1cn[nH]c1-2` , please.
Found: > 100 µM (inactive)

Lookup: Same lookup for `CC1=C(C(=O)NNS(=O)(=O)c2ccc(C)cc2)CC(C(=O)NNS(=O)(=O)c2ccc(C)cc2)=C(C)N1` , please.
Found: > 100 µM (inactive)

Lookup: Same lookup for `Cc1cc(Cl)cc2c1NC(=O)C2=O.O=C(c1ccccc1)C(F)(F)F` , please.
Found: 30.7 µM (inactive)

Lookup: Same lookup for `Cc1ccccc1NC(=O)CC(=O)NNCC(=O)Nc1nnc(-c2ccccc2)s1` , please.
Found: 43.6 µM (inactive)

Lookup: Same lookup for `COc1cc(/C=C/C(=O)O)ccc1C(=O)O/C=C/c1ccccc1` , please.
Found: > 100 µM (inactive)

Lookup: Same lookup for CCCCC1(OC(=O)CCC(=O)O)CCC2(CCC(C)C(C/C=C(C)/C=C/C(O)C(C)/C=C/C(=O)O)O2)OC1CC/C(C)=C/C(=O)O (stereo unspecified) , please.
Found: 2.45 µM (inactive)

Lookup: Same lookup for `Cc1cc(C)nc(NS(=O)(=O)c2ccc(Nc3c4ccc(Cl)cc4nc4c(C(=O)Nc5ccc(S(N)(=O)=O)cc5)cccc34)cc2)n1` , please.
Found: 22.8 µM (inactive)

Lookup: Same lookup for `CC(C)(C)[C@H]1CO[C@]2(C)[C@@H]3C[C@@H]3C(=O)N12` , please.
Found: > 100 µM (inactive)

Lookup: Same lookup for C=C(C)C1CC=C(C)CC1 (stereo unspecified) , please.
Found: 891 µM (inactive)

====

System: OVCAR-4
procedureDetails: NCI tumour cell line growth inhibition, 48 h
The source made the active and inactive calls. Cut-off read from the data, not from the text of the source: active = GI50 up to about 1.1 µM and inactive = higher.
Each item that follows carries a reported GI50.

Use these answered entries as a reference point.
- compound: "CC(=O)OC1CCn2c1nc1cc([N+](=O)[O-])c(C)cc12 (stereo unspecified)"
  observedValue: "> 100 µM (inactive)"
- compound: "CCN1/C(=C/C#C/C(C)=C\\c2sc3ccccc3[n+]2CC)Sc2ccccc21"
  observedValue: "7.33 µM (inactive)"
- compound: "O=[N+]([O-])C(=C/C1CCCCC1)/C(=C\\C1CCCCC1)[N+](=O)[O-]"
  observedValue: "18.9 µM (inactive)"
- compound: "O=C(c1ccccc1)c1ccc2c(c1)NC(=O)c1ccccc1SSc1ccccc1C(=O)N2"
  observedValue: "> 100 µM (inactive)"
- compound: "Cc1cc(S(=O)(=O)Nc2nc(N)n(-c3ccccc3)n2)c(S)cc1Cl"
  observedValue: "> 100 µM (inactive)"

Lookup: Item `O=C(c1cccs1)N(Cc1cccnc1)C(=S)N(Cc1cccnc1)C(=O)c1cccs1` has what recorded GI50?
Found: > 100 µM (inactive)

Lookup: Same lookup for CC1CC(=O)N(N(C)C)C2(C#N)C(=O)N=C(N)C12C#N (stereo unspecified) , please.
Found: > 100 µM (inactive)

Lookup: Same lookup for `CC1=C(C(=O)CC(=O)C(=O)Nc2cccc(C)c2C)Sc2ccccc2N1` , please.
Found: > 100 µM (inactive)

====

Tested on: SN12C
procedureDetails: NCI tumour cell line growth inhibition, 48 h
Activity calls are given as the source filed them. Rule as the data show it: active = GI50 up to about 1.1 µM and inactive = higher.
Would you mind answering with one of these outcomes? label 1 = active, label 0 = inactive

- compound: "COC(=O)NCCc1n[nH]c2c1C(=O)C=C(N1CCOCC1)C2=O"
  assignedCategory: "label 0"
- compound: "CCNC(=O)N(CC)CN(CC)C(=O)NCC"
  assignedCategory: "label 0"
- compound: "Cc1[nH]c(=O)nc(N/N=C/c2ccc(Cl)cc2)c1C(=O)Nc1ccc(Cl)cc1"
  assignedCategory: "label 0"
- compound: "CSc1nc(Cl)c2c(n1)Sc1nc3cc4c(cc3n1C2O)OCCO4 (stereo not drawn)"
  assignedCategory: "label 1"
- compound: "CC(Br)C(=O)c1ccc2cc(Br)c3ccccc3c2c1 (stereo not drawn)"
  assignedCategory: "label 0"
- compound: "CCOc1ccccc1Nc1ccc(N)cc1S(=O)(=O)O"
  assignedCategory: "label 0"
- compound: "ICC1CCCO1 (stereo not drawn)"
  assignedCategory: "label 0"
- compound: "CC1(C)CC(O)C2=C(O1)C(=O)c1ncccc1C2=O (stereo not drawn)"
  assignedCategory: "label 0"

Lookup: Any idea what this test logged for COc1ccc2c(c1)CCC1=CC3(CCC12C)SCCS3 (stereo not drawn) ?
Found: label 0

Lookup: Same lookup for `Cc1cc(=O)oc2cc(OCc3c(F)cccc3Cl)ccc12` , please.
Found: label 0

Lookup: Same lookup for `BrC(Br)([P+](c1ccccc1)(c1ccccc1)c1ccccc1)[P+](c1ccccc1)(c1ccccc1)c1ccccc1` , please.
Found: label 0

Lookup: Same lookup for `COC(=O)C1=NN2c3ccccc3CN([C@@H](C)c3ccccc3)C(=O)[C@@H]2C1` , please.
Found: label 0

Lookup: Same lookup for `CCOC(=O)N1CCN(c2c(C)nc(C)nc2O)CC1` , please.
Found: label 0

Lookup: Same lookup for `S=C(Nc1cccc(Cl)c1)Nc1ccccn1` , please.
Found: label 0

Lookup: Same lookup for CC(C)=CCC12Cc3ccc(O)cc3C(C(C)CN1)C2C (stereo not drawn) , please.
Found: label 0

Lookup: Same lookup for `O=C(NCCOCCO)c1ccc(O)cc1` , please.
Found: label 0

Lookup: Same lookup for O=C1O[B-](c2ccccc2)(c2ccccc2)[NH+]2CCCC12 (stereo not drawn) , please.
Found: label 0

Lookup: Same lookup for COc1ccc(C2CCc3cc4c(cc3/C2=N/OC(C)=O)OCO4)cc1OC (stereo not drawn) , please.
Found: label 0

Lookup: Same lookup for `Cn1c(-c2cccs2)cc(-c2ccsc2)c1-c1cccs1` , please.
Found: label 0

Lookup: Same lookup for Cn1c(=O)c(C(c2ccc([N+](=O)[O-])cc2)c2c(O)c3ccccc3n(C)c2=O)cc2ccccc21 (stereo not drawn) , please.
Found: label 0

Lookup: Same lookup for CCN(CC)CCC1(C2CCCCC2)CCC(=O)NC1=O (stereo not drawn) , please.
Found: label 0

Lookup: Same lookup for `N#CCCN(CCC#N)c1ccc(/C=C2\N=C(c3ccccc3)N(NC(N)=S)C2=O)cc1` , please.
Found: label 0

Lookup: Same lookup for COc1cc(C2C3=C(COC3=O)OC(C)(C)Oc3cc4c(cc32)OCO4)cc(OC)c1O (stereo not drawn) , please.
Found: label 0
